Tested on: HepG2
Assay: cytotoxicity call (relative viability < 0.9)
Details: 10 µM
Out of some 39,000 compounds screened, about 3,300 (8.5%) were called active. For the sample, actives were picked, then their nearest neighbours and some compounds at random.
property-name: cytotoxicity call

Take a look at these entries with their results.
>  <item-smiles>
C[C@H](CO)N1C[C@H](C)[C@@H](CN(C)Cc2ccc3c(c2)OCO3)OCCCC[C@H](C)Oc2ccc(NC(=O)C3CCCCC3)cc2C1=O

>  <endpoint-value>
inactive

$$$$
>  <item-smiles>
O=S1(=O)CO[C@@H](c2ccccc2)CN1

>  <endpoint-value>
inactive

$$$$
>  <item-smiles>
COCCOC(=O)N1C(=O)[C@@]2(c3cc(C#CC4=CCCCC4)ccc31)[C@H](c1ccc(OCCO)cc1)N1[C@H](c3ccccc3)[C@H](c3ccccc3)OC(=O)[C@H]1[C@@H]2C(=O)N1CCc2cc(OC)c(OC)cc2C1

>  <endpoint-value>
active

$$$$
>  <item-smiles>
COCCOC(=O)N1C(=O)[C@@]2(c3cc(C#CC4=CCCCC4)ccc31)[C@H](C(=O)N1CCc3cc(OC)c(OC)cc3C1)[C@H]1C(=O)O[C@H](c3ccccc3)[C@H](c3ccccc3)N1[C@@H]2c1ccccc1OCCO

>  <endpoint-value>
active

$$$$
>  <item-smiles>
COc1ccc(NC(=O)N(C)C[C@@H]2OCCCC[C@H](C)Oc3ccc(NS(=O)(=O)c4ccc(OC)cc4)cc3C(=O)N([C@H](C)CO)C[C@H]2C)cc1

>  <endpoint-value>
inactive

$$$$
>  <item-smiles>
C[C@@H]1CCCCO[C@@H](CN(C)Cc2ccc3c(c2)OCO3)[C@@H](C)CN([C@@H](C)CO)C(=O)c2cc(NC(=O)C3CCCCC3)ccc2O1

>  <endpoint-value>
inactive

$$$$
>  <item-smiles>
C[C@@H]1CN([C@H](C)CO)C(=O)Cc2cc(NC(=O)Nc3cccc4ccccc34)ccc2O[C@@H]1CN(C)Cc1ccc(-c2ccccc2)cc1

>  <endpoint-value>
inactive

$$$$
>  <item-smiles>
C[C@H](NC(=O)[C@H]1N[C@H]2c3ccc(-c4ccc(C(=O)N(C)C)cc4)c(=O)n3C[C@H]2[C@@H]1CO)c1ccccc1

>  <endpoint-value>
inactive

$$$$

Noted for C[C@@H]1CCCCO[C@H](CN(C)Cc2ccc3c(c2)OCO3)[C@H](C)CN([C@H](C)CO)C(=O)c2cc(NC(=O)C3CCCCC3)ccc2O1 : its cytotoxicity call reads active

cytotoxicity call measured on C=CCOC(=O)[C@H]1[C@@H]2C(=O)O[C@@H](c3ccccc3)[C@@H](c3ccccc3)N2[C@@H](c2ccc(OCCOC(=O)[C@H]3C[C@H]4C(=O)N[C@@H](CC(C)C)C(=O)N4[C@H]3c3ccc(O)cc3)cc2)[C@]12C(=O)Nc1ccccc12 = inactive

cytotoxicity call recorded for this compound, COCCOC(=O)N1C(=O)[C@@]2(c3cc(C#CCNC(N)=O)ccc31)[C@H](C(=O)N1CCc3cc(OC)c(OC)cc3C1)[C@H]1C(=O)O[C@H](c3ccccc3)[C@H](c3ccccc3)N1[C@@H]2c1ccccc1OCCO , is inactive

Measured cytotoxicity call, C[C@@H]1CCCCO[C@H](CN(C)Cc2ccc3c(c2)OCO3)[C@H](C)CN([C@@H](C)CO)C(=O)c2cc(NC(=O)C3CCCCC3)ccc2O1 : active

Value of cytotoxicity call reported for the compound C[C@@H]1CCCCO[C@H](CN(C)C(=O)NC2CCCCC2)[C@@H](C)CN([C@@H](C)CO)C(=O)c2cc(NS(=O)(=O)c3cccs3)ccc2O1 is inactive

// recorded cytotoxicity call for C[C@H]1CCCCO[C@H](CN(C)Cc2ccc(Cl)c(Cl)c2)[C@@H](C)CN([C@@H](C)CO)C(=O)c2cc(NS(=O)(=O)c3ccc(F)cc3)ccc2O1 : inactive

Query C[C@@H]1CCCCO[C@@H](CN(C)Cc2ccc(Cl)c(Cl)c2)[C@H](C)CN([C@H](C)CO)C(=O)c2cc(NS(=O)(=O)c3ccc(F)cc3)ccc2O1 yields cytotoxicity call of active
